Origin of measurements: ChEMBL document CHEMBL5131386

Test system: L02
protocol.text: Hepatoprotective activity against concanavalin A induced liver injury in human HL7702 cells assessed as cell survival rate at 5 uM preincubated for 12 hrs followed by concanavalin A stimulation for 12 hrs by MTT assay (reference value: 51.37%)
Assay type: functional
test.conditions: time 24 hrs, read-out: Survival
Provide the recorded viability at 5 µM for the entries that follow.
Give bare numbers, in %.

[
  {
    "molecule": "COc1cc2c(c(OC)c1OC)-c1c(c(Cl)c(OC)c(OC)c1OC(=O)CCl)CC(C)C(C)C2 (stereo unspecified)",
    "readout.kind": "viability at 5 µM",
    "unit.string": "%",
    "test.value": 68.4
  },
  {
    "molecule": "COc1c(Cl)c2c(c(OC)c1OC)-c1c(c(Cl)c(OC)c(OC)c1OC(=O)c1ccc(Cl)cc1Cl)CC(C)C(C)C2 (stereo unspecified)",
    "readout.kind": "viability at 5 µM",
    "unit.string": "%",
    "test.value": 68
  },
  {
    "molecule": "COC1=C(OC)C(OC)CC2=C1c1c(c([N+](=O)[O-])c(OC)c(OC)c1OCCCO)CC(C)C(C)C2 (stereo unspecified)",
    "readout.kind": "viability at 5 µM",
    "unit.string": "%",
    "test.value": 73.1
  },
  {
    "molecule": "COc1cc2c(c(OC)c1OC)-c1c(c([N+](=O)[O-])c(OC)c(OC)c1OC(=O)c1cccnc1)CC(C)C(C)C2 (stereo unspecified)",
    "readout.kind": "viability at 5 µM",
    "unit.string": "%",
    "test.value": 49.9
  },
  {
    "molecule": "COc1cc2c(c(OC)c1OC)-c1c(c(Cl)c(OC)c(OC)c1OC(=O)/C=C/c1ccccc1)CC(C)C(C)C2 (stereo unspecified)",
    "readout.kind": "viability at 5 µM",
    "unit.string": "%",
    "test.value": 110
  },
  {
    "molecule": "COc1c(Cl)c2c(c(OC)c1OC)-c1c(c(Cl)c(OC)c(OC)c1OCCCO)CC(C)C(C)C2 (stereo unspecified)",
    "readout.kind": "viability at 5 µM",
    "unit.string": "%",
    "test.value": 67.1
  },
  {
    "molecule": "COc1c(Cl)c2c(c(OC)c1OC)-c1c(c(Cl)c(OC)c(OC)c1OCCCOC(=O)C(CCSC)NC(=O)OC(C)(C)C)CC(C)C(C)C2 (stereo unspecified)",
    "readout.kind": "viability at 5 µM",
    "unit.string": "%",
    "test.value": 90.8
  },
  {
    "molecule": "COc1cc2c(c(OC)c1OC)-c1c(c(Cl)c(OC)c(OC)c1OC(=O)c1cccnc1)CC(C)C(C)C2 (stereo unspecified)",
    "readout.kind": "viability at 5 µM",
    "unit.string": "%",
    "test.value": 93.7
  }
]

Provide reported viability at 5 µM for each item, in the same order as listed.
1. COc1ccc(C(=O)Oc2c(OC)c(OC)c(Cl)c3c2-c2c(c(Cl)c(OC)c(OC)c2OC)CC(C)C(C)C3)cc1 (stereo unspecified)
2. COc1c(Cl)c2c(c(OC)c1OC)-c1c(c(Cl)c(OC)c(OC)c1OC(=O)/C=C/c1ccccc1)CC(C)C(C)C2 (stereo unspecified)
3. COc1cc2c(c(OC)c1OC)-c1c(c([N+](=O)[O-])c(OC)c(OC)c1OC(=O)/C=C/c1ccccc1)CC(C)C(C)C2 (stereo unspecified)

1. 53.6
2. 89.7
3. 97.4

Provide reported viability at 5 µM for each item, in the same order as listed.
1. COc1c(Cl)c2c(c(OC)c1OC)-c1c(c(Cl)c(OC)c(OC)c1OC(=O)c1ccc([N+](=O)[O-])cc1)CC(C)C(C)C2 (stereo unspecified)
2. COc1c(Cl)c2c(c(OC)c1OC)-c1c(c(Cl)c(OC)c(OC)c1OC(=O)c1cccnc1)CC(C)C(C)C2 (stereo unspecified)
3. COc1c(O)c2c(c(Cl)c1OC)CC(C)C(C)Cc1c(Cl)c(OC)c(OC)c(OC)c1-2 (stereo unspecified)

59.4
79.4
67.3

Provide reported viability at 5 µM for each item, in the same order as listed.
1. COc1cc2c(c(OC)c1OC)-c1c(c(Cl)c(OC)c(OC)c1OC(=O)c1ccc(C(F)(F)F)cc1)CC(C)C(C)C2 (stereo unspecified)
2. COc1c(Cl)c2c(c(OC)c1OC)-c1c(c(Cl)c(OC)c(OC)c1OS(=O)(=O)Cc1ccccc1)CC(C)C(C)C2 (stereo unspecified)

1. 61.8
2. 71.4
